- Assay Text: molar heat capacity at constant pressure
- Reported Conditions: 358.2 K; 101.33 kPa; Liquid; Small sample (50 mg) DSC
Numbers after ± are expanded uncertainties.
Consider the following compounds and their measured molar heat capacity at constant pressure readings.

{"columns": ["Compound", "molar heat capacity at constant pressure"],
 "data": [
  ["CCCCn1cc[n+](C)c1.F[P-](F)(F)(F)(F)F [1-butyl-3-methylimidazolium hexafluorophosphate]", "443.32 ± 8.5 J/K/mol"],
  ["CCCCn1cc[n+](C)c1.O=S(=O)([O-])C(F)(F)F [1-butyl-3-methylimidazolium trifluoromethanesulfonate]", "469.91 ± 12 J/K/mol"],
  ["CCCCn1cc[n+](C)c1.COS(=O)(=O)[O-] [1-butyl-3-methylimidazolium methyl sulfate]", "400.51 ± 7.5 J/K/mol"],
  ["CCCCn1cc[n+](C)c1.F[B-](F)(F)F [1-butyl-3-methylimidazolium tetrafluoroborate]", "393.28 ± 6.8 J/K/mol"]
]}
